# Test system: SNB-75 CNS
# experimental-details: NCI-60 one-dose screen, 48 h (100 = growth as untreated, 0 = no growth, -100 = all killed)
# condition-info: 10 µM unless noted
This is part of a sample that, as a whole, favours compounds with a hit. Of some 83,000 tested, about 20% had one in any assay.
This section presents compounds with their documented growth values.
Form entry: value (%) — number only.

# compound, units-of-measure, growth
measured = [
    ("COC(=O)CSC1=C(C)C(=O)C(OC)=C(OC)C1=O", "%", 66.6),
]

Exam item: Form: Entry = `O=C(Cn1c(-c2ccccc2)nc2ccccc21)N=Nc1c(O)[nH]c2ccc(Cl)cc12` | System = SNB-75 CNS | growth = ____
Marked response: -49.5

Exam item: Form: Entry = `Cn1cc(-c2cc(N)n3nc(-c4c[nH]c5ccccc45)cc3n2)c2ccccc21` | System = SNB-75 CNS | growth = ____
Marked response: -46.8

Exam item: Form: Entry = `O=C(CSc1nc2sc3c(c2c(=O)n1-c1ccc(Cl)cc1)CCCC3)NNC(=O)c1ccc(Br)cc1` | System = SNB-75 CNS | growth = ____
Marked response: 82.7

Exam item: Form: Entry = `Cc1ccc(/C=C/C(=O)c2ccc(S(=O)(=O)NCCNc3nc(N(C)C)nc(N4CCOCC4)n3)cc2)cc1` | System = SNB-75 CNS | growth = ____
Marked response: 59.5

Exam item: Form: Entry = `CCOc1ccccc1NC(=O)N/C(N)=N/c1nc2ccccc2s1` | System = SNB-75 CNS | growth = ____
Marked response: 32.8

Exam item: Form: Entry = `N#Cc1c(-c2ccc(F)cc2)nc(SCc2ccccc2)nc1N1CCNCC1` | System = SNB-75 CNS | growth = ____
Marked response: -93

Exam item: Form: Entry = `CN1CCN(CCS(=O)(=O)Nc2cc(-c3ccc4ncnc(Nc5ccc(F)c(Cl)c5)c4c3)cnc2Cl)CC1` | System = SNB-75 CNS | growth = ____
Marked response: 22.1

Exam item: Form: Entry = CNS(=O)(=O)N1CCc2c(Br)c3c(c(OC)c2C1CCc1ccccc1)OCO3 (centres undefined) | System = SNB-75 CNS | growth = ____
Marked response: -38.4

Where these numbers come from: PubChem BioAssay (NCI)
